tested on: pancreatic endoderm cells; test: NGN3/NKX2.2 double positive cells by immunostaining and InCell imaging after PE to EP differentiation; type: cell-based, human; conditions: 10 μM added to method of example 2 for three days
Give measured % effect NGN3/NKX2.2 double positive cells for each item. Keep answers brief.
One number for each entry, in %.

Each of the following entries comes with a recorded value; kindly state % effect NGN3/NKX2.2 double positive cells for each.
1. c1ccc2c(-c3ccncc3)c[nH]c2c1
2. Cn1cnc2cc3c(Nc4cccc(Br)c4)ncnc3cc21
3. CSc1nc(-c2ccc(F)cc2)c(-c2ccnc(NC(C)c3ccccc3)c2)[nH]1 (stereo not drawn)

Reply:
[199, 350, 153]

Each of the following entries comes with a recorded value; kindly state % effect NGN3/NKX2.2 double positive cells for each.
1. CCOc1nc(NC(=O)Cc2cc(OC)ccc2OC)cc(N)c1C#N
2. CCC(=O)Nc1ccc2ncnc(Nc3cccc(Br)c3)c2c1
3. CN(C)c1ccc(/C=C2/C(=O)Nc3ccccc32)cc1

Reply:
[308, 274, 231]

###

test system: pancreatic endoderm cells; experiment: NGN3/NKX2.2 double positive cells by immunostaining and InCell imaging after PE to EP differentiation; type: cell-based, human; conditions: 1 μM added to method of example 2 for three days
quantity-measured: % effect NGN3/NKX2.2 double positive cells (%)
One number for each entry, in %.

Sample answers from the record:
// CCOc1nc(NC(=O)Cc2cc(OC)ccc2OC)cc(N)c1C#N [JNK VIII] : % effect NGN3/NKX2.2 double positive cells value = 204

// COc1cc2ncnc(Nc3ccc(F)c(Cl)c3)c2cc1OCCCN1CCOCC1 [Gefitinib] : % effect NGN3/NKX2.2 double positive cells value = 311

// COc1cccc(-c2cc(=O)c3ccccc3o2)c1N [PD98059] : % effect NGN3/NKX2.2 double positive cells value = 165

Each of the following entries comes with a recorded value; kindly state % effect NGN3/NKX2.2 double positive cells for each.
1. CCC(=O)Nc1ccc2ncnc(Nc3cccc(Br)c3)c2c1 [PD174265]
2. Cn1cc(/C=C2\C(=O)Nc3ccc(S(N)(=O)=O)cc32)c2ccccc21 [Syk inhibitor]

Reply:
1. 240
2. 157
